Consider the following IC50 values measured on Fatty acid synthase (Gallus gallus).
Sequence (P12276 whole entry): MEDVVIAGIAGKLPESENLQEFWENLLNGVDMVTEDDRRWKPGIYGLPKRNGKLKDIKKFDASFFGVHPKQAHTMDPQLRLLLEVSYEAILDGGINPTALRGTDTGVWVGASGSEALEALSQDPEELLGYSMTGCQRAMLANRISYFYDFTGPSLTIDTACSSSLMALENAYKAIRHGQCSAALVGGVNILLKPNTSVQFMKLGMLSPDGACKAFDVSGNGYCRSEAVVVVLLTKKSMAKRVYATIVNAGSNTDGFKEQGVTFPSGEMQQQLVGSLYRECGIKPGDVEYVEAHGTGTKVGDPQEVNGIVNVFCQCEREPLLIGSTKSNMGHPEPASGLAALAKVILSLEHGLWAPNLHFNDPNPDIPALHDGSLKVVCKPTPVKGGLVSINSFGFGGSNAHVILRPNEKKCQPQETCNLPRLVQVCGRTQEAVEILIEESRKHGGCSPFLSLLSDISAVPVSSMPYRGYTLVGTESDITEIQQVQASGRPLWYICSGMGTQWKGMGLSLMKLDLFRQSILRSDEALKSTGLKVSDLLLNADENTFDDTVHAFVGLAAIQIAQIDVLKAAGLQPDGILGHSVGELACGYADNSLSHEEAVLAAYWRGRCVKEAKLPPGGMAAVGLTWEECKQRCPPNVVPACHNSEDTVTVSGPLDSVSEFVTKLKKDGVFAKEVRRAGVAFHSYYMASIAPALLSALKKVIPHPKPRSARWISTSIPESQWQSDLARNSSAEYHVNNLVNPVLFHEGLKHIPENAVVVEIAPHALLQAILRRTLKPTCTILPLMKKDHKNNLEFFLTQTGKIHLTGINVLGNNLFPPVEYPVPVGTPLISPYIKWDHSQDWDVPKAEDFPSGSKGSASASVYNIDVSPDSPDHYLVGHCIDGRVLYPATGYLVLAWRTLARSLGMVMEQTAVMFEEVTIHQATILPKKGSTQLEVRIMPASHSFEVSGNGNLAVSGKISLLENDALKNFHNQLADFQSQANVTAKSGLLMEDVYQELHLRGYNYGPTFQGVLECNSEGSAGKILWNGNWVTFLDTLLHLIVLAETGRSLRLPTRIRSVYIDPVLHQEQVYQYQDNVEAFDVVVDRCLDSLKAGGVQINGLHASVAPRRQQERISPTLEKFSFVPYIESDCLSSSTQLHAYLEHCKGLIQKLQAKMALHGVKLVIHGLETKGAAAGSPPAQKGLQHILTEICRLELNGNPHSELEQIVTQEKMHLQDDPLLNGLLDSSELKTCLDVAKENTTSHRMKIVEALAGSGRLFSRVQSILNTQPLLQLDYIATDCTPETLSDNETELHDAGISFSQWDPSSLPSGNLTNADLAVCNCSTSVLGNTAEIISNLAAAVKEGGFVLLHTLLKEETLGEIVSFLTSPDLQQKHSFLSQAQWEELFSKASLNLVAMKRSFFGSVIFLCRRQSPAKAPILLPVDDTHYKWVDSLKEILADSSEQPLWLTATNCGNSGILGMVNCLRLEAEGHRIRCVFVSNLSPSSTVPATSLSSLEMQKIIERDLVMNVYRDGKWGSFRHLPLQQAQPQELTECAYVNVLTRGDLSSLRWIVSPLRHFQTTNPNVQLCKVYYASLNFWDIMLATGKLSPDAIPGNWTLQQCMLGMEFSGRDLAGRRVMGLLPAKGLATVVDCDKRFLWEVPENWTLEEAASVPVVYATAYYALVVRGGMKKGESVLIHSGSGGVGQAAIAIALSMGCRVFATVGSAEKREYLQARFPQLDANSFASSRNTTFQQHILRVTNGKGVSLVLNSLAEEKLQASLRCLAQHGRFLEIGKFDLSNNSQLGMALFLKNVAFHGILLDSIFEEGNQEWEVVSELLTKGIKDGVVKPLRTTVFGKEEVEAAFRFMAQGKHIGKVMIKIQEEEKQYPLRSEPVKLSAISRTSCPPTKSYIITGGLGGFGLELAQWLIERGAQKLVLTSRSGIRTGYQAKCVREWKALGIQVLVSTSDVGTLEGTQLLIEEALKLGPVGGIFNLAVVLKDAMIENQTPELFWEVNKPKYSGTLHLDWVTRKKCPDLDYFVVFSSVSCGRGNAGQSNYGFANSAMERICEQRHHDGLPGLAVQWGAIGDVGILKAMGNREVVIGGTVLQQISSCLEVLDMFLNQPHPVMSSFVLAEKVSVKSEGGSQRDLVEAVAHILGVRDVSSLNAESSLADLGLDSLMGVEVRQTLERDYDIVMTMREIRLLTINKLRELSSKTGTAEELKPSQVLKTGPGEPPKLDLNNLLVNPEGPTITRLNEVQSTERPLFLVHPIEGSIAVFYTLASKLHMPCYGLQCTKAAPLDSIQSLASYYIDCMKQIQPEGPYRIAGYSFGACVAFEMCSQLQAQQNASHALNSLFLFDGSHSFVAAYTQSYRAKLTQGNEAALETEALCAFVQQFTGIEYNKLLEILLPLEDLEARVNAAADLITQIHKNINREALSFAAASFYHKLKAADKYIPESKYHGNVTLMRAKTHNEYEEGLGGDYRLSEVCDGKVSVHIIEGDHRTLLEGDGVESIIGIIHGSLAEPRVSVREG
Reported Metric: IC50

>>> reading("CCCCCCCCCCCCCCCCCCC/C=C/C(=O)OC[C@H](CO[C@@H]1O[C@H](CO[C@H]2O[C@H](CO)[C@H](O)[C@H](O)[C@H]2O)[C@H](O)[C@H](O)[C@H]1O)OC(=O)CCCCCCCCCCCCCCCCCCC")
"15.6 µM"
>>> reading("CCCCCCCCCCCCCCCCCCCC(=O)O[C@H](COC(=O)CCCCCCCCCCCCCCC)CO[C@@H]1O[C@H](CO[C@H]2O[C@H](CO)[C@H](O)[C@H](O)[C@H]2O)[C@H](O)[C@H](O)[C@H]1O")
"15.6 µM"
>>> reading("CC/C=C\\C/C=C\\C/C=C\\CCCCCCCC(=O)OC[C@H](CO[C@@H]1O[C@H](CO[C@H]2O[C@H](CO)[C@H](O)[C@H](O)[C@H]2O)[C@H](O)[C@H](O)[C@H]1O)OC(=O)CCCCCCCCCCCCCCCCC")
"15.6 µM"

src = ChEMBL document CHEMBL5260828
